Each recorded value in this set is attributed to ChEMBL document CHEMBL4513216.

assay: Toxicity liver stage against HepG2, at 10uM; format: cell-based; set-up: test concentration 10 uM, cell line HepG2-A16-CD81EGFP; conditions: human, HepG2-A16-CD81EGFP cells; read-out: INHIBITION
METRIC: cytotoxicity at 10 µM

Worked cases, cytotoxicity at 10 µM given:
{"columns": ["COMPOUND", "cytotoxicity at 10 µM"],
 "data": [
  ["COCCc1noc(C2CCCN(c3ncnc4c3CCC4)C2)n1 (stereo unspecified)", "19.3%"],
  ["O=C(NCc1ccc2c(c1)CCCO2)c1ccc(C2CCNC2)cc1 (stereo unspecified)", "-11.5%"],
  ["CS(=O)(=O)N[C@@H]1CCN(Cc2nccs2)[C@H]1Cc1ccncc1", "-2.48%"]
]}

For every record below, what is its cytotoxicity at 10 µM?
1. COc1cccc(-c2noc(C3CCN(CC4CCCCC4)C3)n2)c1 (stereo unspecified)
2. COc1c(C2CCCN2CC(=O)Nc2cc(C)nn2C)c(C)nn1C (stereo unspecified)
3. Cc1cccc(CN2CCCC(O)(CNCc3ncccc3C)C2=O)c1 (stereo unspecified)

1: -3.44%; 2: 3.72%; 3: -7.4%

###

experiment: Toxicity liver stage against HepG2, at 10uM; assay type: cell-based; design: test concentration 10 uM, cell line HepG2-A16-CD81EGFP; conditions: human, HepG2-A16-CD81EGFP cells; read-out: INHIBITION
METRIC: cytotoxicity at 10 µM (%)
Numbers only, in %.

Worked cases, cytotoxicity at 10 µM given:
{"columns": ["MOLECULE", "cytotoxicity at 10 µM / %"],
 "data": [
  ["CCN(CCO)C[C@@H]1CN(c2cccc(C(F)(F)F)n2)C[C@@H]1CO", 0.855],
  ["O=C(C[S+]([O-])Cc1cccc(Cl)c1)NC1CCCC1 (configuration not stated)", 0.808],
  ["CC(C)c1noc(C(C)N2CCN(Cc3cccs3)CC2)n1 (configuration not stated)", -6.18]
]}

For every record below, what is its cytotoxicity at 10 µM?
1. c1ccc(-c2noc(CCCN3CCCC3Cn3cncn3)n2)cc1 (configuration not stated)
2. Cc1nc(Cn2cc(C#N)c(=O)c3ccccc32)no1
3. O=C([C@@H]1CSCN1)N1CC2(CCNCC2)c2cc(Cl)ccc21
4. O=C1CCC(=O)N1c1nn(Cc2cccc(F)c2)cc1Cl

[-2.06, 9.95, 4.33, -6.61]

For every record below, what is its cytotoxicity at 10 µM?
1. CC(C)(C)CC(=O)NS(=O)(=O)c1ccc(C#N)cc1C(F)(F)F
2. Cc1ncccc1OC1(C(=O)NCCC2CCCN2C)CCNCC1 (configuration not stated)
3. O=C1COc2ccc(C(=O)NS(=O)(=O)c3ccccc3Cl)cc2N1
4. Cc1cccc(C)c1OCCNC(=O)CNC(=O)C1CCCC1

[-12.3, 2.18, -7.03, -122]

I'd like to know its cytotoxicity at 10 µM. The molecule in question is CC(CO)(NC(=O)Nc1nncs1)C1CCCCC1 (configuration not stated)
4.17

###

assay: Toxicity liver stage against HepG2, at 10uM; type: cell-based; set-up: test concentration 10 uM, cell line HepG2-A16-CD81EGFP; details: human, HepG2-A16-CD81EGFP cells; read-out: INHIBITION
For each of the compounds below, state its cytotoxicity at 10 µM.
Give bare numbers, in %.

Worked cases, cytotoxicity at 10 µM given:
{"columns": ["COMPOUND", "cytotoxicity at 10 µM, %"],
 "data": [
  ["CC1(C)CN(Cc2ccncc2)CCS1(=O)=O", -4.95],
  ["Cc1cc(-c2cccc(C(=O)O)c2)nc(C2CCN(C(C)C)CC2)n1", -0.723],
  ["CN(C)C(=O)[C@H]1CO[C@H]2CCN(c3ncc(F)cn3)C[C@H]2C1", 7.75]
]}

For every record below, what is its cytotoxicity at 10 µM?
1. O=C1[C@@H]2CN(C3CCOCC3)C[C@H]2CCN1CC1CC1
2. Cc1ccnc(OCC(=O)N2CCCC2)n1
3. NC(=O)CCOc1nc(-c2ccccc2Cl)no1
4. COCCN1CCC2(CC1)CN(C(C)=O)c1ccc(C)cc12
5. CCS(=O)(=O)N1CCOC2(CCCN(c3cccc(C#N)c3)C2)C1 (stereo unspecified)
6. CN1CCc2cc(C(CNS(=O)(=O)c3cccs3)N3CCCC3)ccc21 (stereo unspecified)
7. NC(=O)C1CCN(C(=O)NC2CCc3cc(Cl)ccc32)CC1 (stereo unspecified)
8. COCCCNS(=O)(=O)c1cc(C)sc1C

[4.17, -10.2, -1.64, 3.77, 0.341, 2.66, 1.67, -11.6]

###

assay: Toxicity liver stage against HepG2, at 10uM; type: cell-based; set-up: test concentration 10 uM, cell line HepG2-A16-CD81EGFP; conditions: human, HepG2-A16-CD81EGFP cells; read-out: INHIBITION
METRIC: cytotoxicity at 10 µM (%)
Answers are plain numbers, in %.

{"columns": ["COMPOUND", "READOUT_UNIT", "cytotoxicity at 10 µM"],
 "data": [
  ["CC1CN(C(=O)c2ccc(=O)n(C)c2)c2ccccc2NC1=O (stereo unspecified)", "%", -2.09],
  ["O=C(CCc1ccncc1)N1CCCC(N2CCNC2=O)C1 (stereo unspecified)", "%", 2.71]
]}

For every record below, what is its cytotoxicity at 10 µM?
1. COCC(C)NC(=O)c1cc(Br)c2c(c1)OCCO2 (stereo unspecified)
2. CC(C)CS(=O)(=O)CC(=O)N(C)Cc1ccc(OC(F)F)cc1
3. O=C1O[C@@H]2CN(Cc3ccsc3)C[C@@H]2N1Cc1ccccn1
4. O=C(Nc1cccnc1)Nc1ccn(CC(F)F)n1
5. Cn1cnc2c1C(C(=O)N1CCCO1)N(C(=O)c1ccccc1)CC2 (stereo unspecified)
6. Cc1cc2c(N3CCCC(OCc4cccnc4)C3)ncnc2s1 (stereo unspecified)
7. CCc1nc(C)c(C(=O)NCCN2CCC(C)CC2)s1
8. Cc1cccc(CN2C[C@@H]3CN(Cc4ccoc4)CCO[C@@H]3C2)n1

1. 3.54
2. 1.13
3. 9.77
4. -4.63
5. -0.234
6. 39
7. -5.6
8. 6.53

I'd like to know its cytotoxicity at 10 µM. The compound in question is COCC(O)CNC(=O)Nc1ccc(Cl)cc1-n1cccc1 (stereo unspecified)
-6.93

###

test: Toxicity liver stage against HepG2, at 10uM; format: cell-based; parameters: test concentration 10 uM, cell line HepG2-A16-CD81EGFP; details: human, HepG2-A16-CD81EGFP cells; read-out: INHIBITION
For each of the molecules below, state its cytotoxicity at 10 µM.
One number for each entry, in %.

Worked cases, cytotoxicity at 10 µM given:
{"columns": ["MOLECULE", "cytotoxicity at 10 µM [%]"],
 "data": [
  ["O=C(NCC(F)F)c1ccc(S(=O)(=O)NCCc2c[nH]cn2)cc1", -1.99],
  ["CN1CCCC1CNC(=O)CCOc1ccc(Br)cc1 (stereo unspecified)", -16.9],
  ["O=C(Nc1ccc(-n2cccn2)cc1)N1C[C@H](O)[C@@H](N2CCOCC2)C1", -45.9],
  ["O=c1cc(N2CCCCC2)cnn1Cc1noc(C2CCCO2)n1 (stereo unspecified)", -47.1],
  ["CCc1nc(C2CCCN2C(=O)c2csc(COC)n2)no1 (stereo unspecified)", 1.04],
  ["O=c1c(Cc2ccccc2)c(O)ccn1Cc1cccs1", 10.2],
  ["c1ccc(N2CCc3ncnc(C4CC4)c3CC2)nc1", -157],
  ["Cc1cc(N[C@H]2CN(CC(C)(C)N3CCOCC3)C[C@@H]2C2CC2)ncn1", 2.03]
]}

For every record below, what is its cytotoxicity at 10 µM?
1. CC(Cn1cccn1)NCCS(=O)(=O)c1ccccc1 (stereo unspecified)
2. COc1cc2c(cc1CNCc1ccnc(-n3cccn3)c1)OC(C)C2 (stereo unspecified)
3. CC(C)C(=O)N(C)Cc1nc(N2CCCC2)ncc1-c1ccncc1

-3.63
11.2
6.54

###

experiment: Toxicity liver stage against HepG2, at 10uM; assay type: cell-based; design: test concentration 10 uM, cell line HepG2-A16-CD81EGFP; settings: human, HepG2-A16-CD81EGFP cells; read-out: INHIBITION
METRIC: cytotoxicity at 10 µM (%)
Numbers only, in %.

Worked cases, cytotoxicity at 10 µM given:
{"columns": ["COMPOUND", "cytotoxicity at 10 µM / %"],
 "data": [
  ["CNC(=O)c1cnn2c(C3CCCN3C)ccnc12 (centres undefined)", 3.74],
  ["CCc1noc(C(C)N2CCOCC2)n1 (centres undefined)", -6.5],
  ["CN(Cc1nccn1C)C1CCCN(CCCc2ccccc2)C1 (centres undefined)", 1.17],
  ["CN(CCc1nccs1)C(=O)CC1(O)CCCCC1", -6.16],
  ["CC(Cn1cncn1)NC(=O)Nc1ccc(F)cc1OCC1CC1 (centres undefined)", 4.34]
]}

For every record below, what is its cytotoxicity at 10 µM?
1. Cc1cc(S(=O)(=O)N(CC(N)=O)CC(C)C)ccc1Br
2. Cc1cnc(N2C[C@@H]3CCN(CC(=O)N(C)C)C(=O)[C@H]3C2)nc1
3. COc1cc(N2CC[C@@H]3O[C@@H](C(=O)NC(C)C)C[C@@H]32)ncn1

1. -10.1
2. -19
3. 7.66
